- test.details: yeast display, Sf9 membrane polyspecificity reagent, FACS + sequencing; frameworks hold sequencing errors

# primary.sequence, polyreactivity (PSR sort gate)
data = [
    ("QDQLVESGGGLVQAGGSLRLSCAASGSTFSYNMGWYRQAPGKERELVARITRGGGSTYYADSVKGRFTISRDNAKNTVYLQMNSLKPEDTAVYYCAADRYFRYYYWGQGTQVTVSS", "high polyreactivity"),
    ("QVQLVESGGGLVQAGGSLRLSCAASGSTFYANAMGWYRQAPGKERELVAVIRWSGGSTYYADSVKGRFTISRDNAKNTVYLQMNSLKPEDTAVYYCNADFYRVAYLRRYSHFDYWGQGTQVTVSS", "high polyreactivity"),
    ("QVQLVESGGGLVQAGGSLRLSCAASGKTFPANAMGWYRPAPGKERELVADISVSDGSTYYADSVKGRFTISRDNAKNTVYLQMNSLKPQDTAVYYCNARKRPNFYVKSFTQIGGRFDYWGQGTQVTVSS", "low polyreactivity"),
    ("QVQLVESGGGLVQAGGSLRLSCAASGSIFPGYAMGWYRQAPGKERELVATITWSGGSTYYADSVKGRFTISRDNAMNTVYLQMNSLKPEDTAVYYCNADSNWYYQLNYYGLYDYWGQGTQVTVSS", "low polyreactivity"),
    ("QVQLVESGGGLVQAGGSLRLSCAASGSIFHGYAMGWYRQAPGKERELVAAISSTGGSTYYADSVKGRFTISRDNAKNTVYLQMNSLKPEDTAVYYCAAYYYVGYRARRYDYWGQGTQVTVSS", "high polyreactivity"),
    ("QVQLVESGGGLVQAGGSLRLSCAASGSTFGNNAMGLYRQAPGKERELVASINWNGGSTYYADSVKGRFTISRDNAKITVYLQMNSLKPEDTAVYYCNARLYFVEGQDYYYWGQGTQVTVSS", "low polyreactivity"),
    ("QVQLVESGGGLVQAGGSLRLSCAASGSFFASYSMGWYRQAPAKERELVAAITYSGSRTYYADSVKGRFTISRDNAKNTVYLQMNSLKPEDSAVYYCNADYYWYPYEDDYWGQGTQVTVSS", "low polyreactivity"),
    ("QVQLVESGGGLDPAGGSLRLSCAASGITFSYYAMGWYRQAPGKERELVAAISSSGSTYYADSVKGRFTISRDNAKNTDYLQMNSLKPEDTAVYYCAAEIRYYEYDYWGQGTQVTVSS", "low polyreactivity"),
    ("QVQLVESGGGLVQAGGSLRLSCAASGSIIKRNDMGWYRQAPGKERELVASITWRGGRTYYADSVKGRFTISRDNAKNTVYLQMNSLTPEDTSVYYCATTQYPSHYDAYGYWGQGTQVTVSS", "high polyreactivity"),
    ("QVQLVESGGGIVQAGGSLRISCAASGYTFKWYDMGWYRQAPGKEWELVASISWRGGSTYYADSVKGRYTISRDNAKNTVYFQMNSLKPEDTAVYYCAASLWPDYEYDYWGQGTQVTVSS", "low polyreactivity"),
    ("QVQLVESGGGLVQAGGSLRLSCAASGFILIRNGMGCYRQAPGKERELVAAISRSGRTYYADSVKGRFTISRDNAKNTVYLQMNSLKPEDTAVYYCAKRDYLYGRYDYSGQGTQVTVSS", "high polyreactivity"),
    ("QVQLVESGGGLVQAGGSLRLSCAASGRIFRTNAMGWYRQAPGKERELVASINSDGSTNYADSVKGRFTISRDNAKNTVYLQMNSLKPDDTAVYYCAAGYFWGRIKYYYWGQCTQVTVSS", "high polyreactivity"),
    ("QVQLVESGGGLVQAGGSLRLSCAASGRTFFKYAMGWYRQAPGKERELVAAISSVGSTYYADSVKGRFTISRDNAKNSVYLQMNSLKPEDTAVYYCAARKNRAYGYWGQGTQVTVSS", "high polyreactivity"),
    ("QVQLVESGGGLVQAGGSLRLSCAASGFTFFSNAMGWYRQAPGKERELVASITNDGSTDADSVKGRFTISRDNAKNTVYLQMNSLKPEDTAVYYCAADFYLWRLPVYAQRYFVRGDYWGQGTQVTVSS", "low polyreactivity"),
    ("QVQLVESGGGLVQAGGSIRLSCAASGSTFFQYAMGWYRQAPGKERELVAAISSRGGRTYYADSVKGSFTISRDNAKNTVYLQMNSLKPEDTAVYYCAVDHLTRSGDGEYWGQGTQVTVSS", "high polyreactivity"),
    ("QVQLVESGRGLVQAGGSLRLSCAASGSTFDGYAMGWYRQAPGKERELVAAINWGGGSTRYADSVKGRFTISRDNAKNTVYLQMNSLKPEDTAVYYCAKYTSSRFDAFNYWGQGTQVTVSS", "high polyreactivity"),
    ("QVQLVESGGGLVQAGGSLRLSCAASGFIFVWYAMGWYRQAPGKEREMVAAISFSGSSTYYADSVKGRFTITRDNAKNTVYLQMNSLKPEDTAVYYCAKRIAKYIPRYKFDYWGQGTQVTVSS", "high polyreactivity"),
    ("QVQLVESAGGLVQAGGSLRLSCAASGNTFANYAMGWDRQAPGKERELVAAITRGGSTFYADSVKGRFTISRDNAKNTVYLQMNSLKPEDSAVYYCAKGYGTNTRYYHRYRYDYWGQGTQVTVSS", "high polyreactivity"),
    ("QVQLVESGGGLVQAGGSLRLSCAASGRIFDEYAMGWYRQAPGKERELVAAIDTSTGSTYYADSVKGRFTISRDNAKNTVYLQMNSLKPEDTAVYYCAAEVYFGLFYVVFQYDYWGQGTQVTVSS", "high polyreactivity"),
    ("QVHLVESGGGLVQAGGSLRLSSAASGFICYQYAMGWYRQAPGKERELVAAISRRGGGTYYADSVKGRFTISRDNAKNTVYLEMNRLKPEDTAVYYCNTDRLGRITFGGYDYWGQGTQVTVSS", "high polyreactivity"),
    ("QVQLVESGGGIVQAGGSLRLSWAASGRNFLDYTMGWYRQAHGKERELVAAIRTSAGSTYYADSVKGRFTISRDNAKNTVYLQMNILKPEYTAVYYCAAEYYVQYYYRYDYWGQGTQVTVSS", "low polyreactivity"),
]

---

- test.details: yeast display, Sf9 membrane polyspecificity reagent, FACS + sequencing; frameworks hold sequencing errors

# primary.sequence, polyreactivity (PSR sort gate)
rows = [
    ("QVQLVESGGGLVQAGGSLRLSCAASGSTFAVYAMGWYRQAPGKERELVASITDGGASTYYADSVKGRFTISRDNAKNTVYLQMNSLKPEDTAVYYCAADTYPTTSEVDYWGQGTQVTVSS", "low polyreactivity"),
    ("QVQLVESGGGLVQAGGSLRLSCAASGRTFVGNTMGWYRQAPGKERELVAAISTGDGSTTYADSVKGRFTISRDNAKNTVYLQMNSLKPEDTAVYYCNVKYRASYRTDFEYWGLGTQVTVSS", "low polyreactivity"),
]

---

- test.details: yeast display, Sf9 membrane polyspecificity reagent, FACS + sequencing; frameworks hold sequencing errors

# primary.sequence, polyreactivity (PSR sort gate)
records = [
    ("QVQLVESGGGLVQAGGSLRLSCAASGNTVWYNAMGWFIQAPGKETELVAAISYSGGGTYYAVSVKGRFTISREKAKNTVYLQMNCLKPDDSAVYYCSADTLQRAFVLYDYWGQGTQVTVSS", "low polyreactivity"),
    ("QVQLVESGGGLVQAGGSLRLSCAASGRIFSKNAMGWYRQAPGKVRELVAAISYITGSTYADSVKGRFKISRDNAKNTDYLQMNSLKPEYTAVYYCAASSTWYGYYIYVFRAYDYWGQGTQLTVSS", "low polyreactivity"),
    ("QVQLVESGGGLVQAGGSLRISCAASGSTFFRYAMGWYRQAPGKERELVAAIYKSGASTYYADSVKGRFTISRDNPKNSVYLQMNSLKPEDTGVYYCNADVKNSSAREWQYGYDYWGQGTQVTVSS", "low polyreactivity"),
    ("QVQLVESGGGLVQAGGSLRLSCAASGNIYAYYAMGWYRQAPGKEWELVAAITDSGGNTFYADSVKGRFTISRDNAKNTVYLQMNSLKPVDTAVYYCAADPDGWGFVYPRYDYWGQGTQVTVSS", "low polyreactivity"),
]

---

- test.details: yeast display, Sf9 membrane polyspecificity reagent, FACS + sequencing; frameworks hold sequencing errors

# primary.sequence, polyreactivity (PSR sort gate)
measured = [
    ("QVQLVESGGGLVQAGGSLRLSCAASGRTFDYKAMGWYRQAPGKERELVAAIDVNGGDTYYADSVKGRFTISRDNAKNTVYLQMNSLKPEDTAVYYCAAERDARTDDYWGQGTQVTVSS", "low polyreactivity"),
    ("QVQLVESGGGLVQAGGSLRLSCAASGIILPYYAMGWYRQAPGKEREFVATISSDGTSTYYADSVKGRFTISRDNAKNTVYLQMNSLKPEDTAVYDCAARIRQNPGGDNSWGQGTQVTVSS", "low polyreactivity"),
]
